Field: MIC. Provide a value for each of the compounds that follow.
Tested on: Ralstonia solanacearum
Assay: Antibacterial activity against Ralstonia solanacearum CGMCC 1.12711 measured after 12 to 14 hrs by double dilution method
Assay type: functional
One number for each entry, in µM.

1. COC(=O)c1ccc(-c2c3[nH]c4ccc(OC)cc4c3cc[n+]2Cc2ccc(Cl)cc2)cc1 : 37.5
2. CO/N=C(\C(=O)N[C@@H]1C(=O)N2C(C(=O)O)=C(COC(C)=O)CS[C@H]12)c1csc(N)n1 [CEFOTAXIME SODIUM] : 3.12
3. C[C@@H]1O[C@@H]1P(=O)(O)O [PHOSPHOMYCIN DISODIUM] : 50

Shifting focus to the compound that follows.
Check the records and state MIC for `COc1ccc2[nH]c3c(-c4ccco4)[n+](Cc4ccccc4)ccc3c2c1`
100
